Source of measurements: patent US20150141411A1

Each entry below carries its recorded IC50.
target: γ-secretase (Homo sapiens); construct: endogenous in cells; host or cells: SKNBE2 human neuroblastoma cells (carrying hAPP 695 wild type as substrate); experiment: Screening for γ-secretase-modulating activity: Aβtotal in supernatant of SKNBE2 cells carrying hAPP 695 wild type (Alphalisa); format: cell-based; conditions: SKNBE2 human neuroblastoma cells carrying hAPP 695 wild type, overnight incubation, Aβtotal in cell supernatant

{"molecule": "Cc1cn(-c2ccc3n(c2=O)CC(C)N(C(C)c2c[nH]c4c(F)cc(Cl)cc24)C3=O)cn1 (single isomer, unassigned) [compound 218]", "assayed-target": "γ-secretase (Homo sapiens)", "IC50": "3.8 µM"}
{"molecule": "Cc1cn(-c2ccc3n(c2=O)CCN(Cc2cccc(N4CCCCC4)c2)C3=O)cn1", "assayed-target": "γ-secretase (Homo sapiens)", "IC50": "> 10 µM"}
{"molecule": "Cc1cn(-c2ccc3n(c2=O)CCN(C(C)c2c[nH]c4cc(F)c(Cl)cc24)C3=O)cn1 (single isomer, unassigned) [compound 183]", "assayed-target": "γ-secretase (Homo sapiens)", "IC50": "6.76 µM"}
{"molecule": "Cc1ncn(-c2ccc3n(c2=O)CCN(Cc2cccc(C(F)(F)F)c2)C3=O)n1", "assayed-target": "γ-secretase (Homo sapiens)", "IC50": "> 10 µM"}
{"molecule": "C[C@@H]1Cn2c(ccc(-n3ccnc3)c2=O)C(=O)N1Cc1cc(C(F)(F)F)cc(C(F)(F)F)c1", "assayed-target": "γ-secretase (Homo sapiens)", "IC50": "> 10 µM"}
{"molecule": "Cc1cn(-c2ccc3n(c2=O)CC(C(C)O)N(Cc2cc(C(F)(F)F)cc(C(F)(F)F)c2)C3=O)cn1 (centres unmarked)", "assayed-target": "γ-secretase (Homo sapiens)", "IC50": "> 10 µM"}
{"molecule": "Cc1cn(-c2ccc3n(c2=O)C[C@@H](C)N(Cc2cn(C)c4cc(F)c(C5CC5)cc24)C3=O)cn1", "assayed-target": "γ-secretase (Homo sapiens)", "IC50": "5 µM"}
{"molecule": "Cc1cn(-c2c(Br)cc3n(c2=O)C[C@@H](C)N(Cc2cc(C(F)(F)F)cc(C(F)(F)F)c2)C3=O)cn1", "assayed-target": "γ-secretase (Homo sapiens)", "IC50": "8.71 µM"}
{"molecule": "Cc1cn(-c2ccc3n(c2=O)C[C@@H](C)N(Cc2c(C)[nH]c4ccc(C(F)(F)F)cc24)C3=O)cn1", "assayed-target": "γ-secretase (Homo sapiens)", "IC50": "6.61 µM"}
{"molecule": "Cc1cn(-c2cc(F)c3n(c2=O)C[C@@H](C)N(Cc2cc(C(F)(F)F)cc(C(F)(F)F)c2)C3=O)cn1", "assayed-target": "γ-secretase (Homo sapiens)", "IC50": "> 10 µM"}
{"molecule": "Cc1cn(-c2ccc3n(c2=O)CCN(C2CCCc4c2cccc4C(F)(F)F)C3=O)cn1 (centres unmarked)", "assayed-target": "γ-secretase (Homo sapiens)", "IC50": "> 10 µM"}
{"molecule": "Cc1cn(-c2ccc3n(c2=O)CCN(CCC2CCCCC2)C3=O)cn1", "assayed-target": "γ-secretase (Homo sapiens)", "IC50": "> 10 µM"}
{"molecule": "Cc1cn(-c2ccc3n(c2=O)C[C@@H](C)N(Cc2cn(C)c4cc(C(F)(F)F)ccc24)C3=O)cn1", "assayed-target": "γ-secretase (Homo sapiens)", "IC50": "> 10 µM"}
{"molecule": "Cc1cncn1-c1ccc2n(c1=O)CCCN(Cc1ccc(Cl)c(Cl)c1)C2=O", "assayed-target": "γ-secretase (Homo sapiens)", "IC50": "> 10 µM"}
{"molecule": "Cc1cn(-c2ccc3n(c2=O)C[C@@H](C)N(Cc2cc(Cl)cc(C(F)(F)F)c2)C3=O)cn1", "assayed-target": "γ-secretase (Homo sapiens)", "IC50": "> 10 µM"}
{"molecule": "Cc1cn(-c2ccc3n(c2=O)C[C@@H](C)N(Cc2cc(CC(F)(F)F)cc(C(F)(F)F)c2)C3=O)cn1", "assayed-target": "γ-secretase (Homo sapiens)", "IC50": "> 10 µM"}
{"molecule": "Cc1cn(-c2ccc3n(c2=O)C[C@@H](C)N(Cc2cccc(C(F)(F)F)c2C)C3=O)cn1", "assayed-target": "γ-secretase (Homo sapiens)", "IC50": "> 10 µM"}
{"molecule": "Cc1cn(-c2ccc3n(c2=O)CCN(Cc2ccc(Cl)c(Cl)c2)C3=O)cn1", "assayed-target": "γ-secretase (Homo sapiens)", "IC50": "3.63 µM"}
{"molecule": "Cc1cn(-c2ccc3n(c2=O)C[C@@H](C)N(Cc2cc(OC(C)C)nc(C(F)(F)F)c2)C3=O)cn1", "assayed-target": "γ-secretase (Homo sapiens)", "IC50": "> 10 µM"}
{"molecule": "CNC[C@@H]1Cn2c(ccc(-n3cnc(C)c3)c2=O)C(=O)N1Cc1cc(C(F)(F)F)cc(C(F)(F)F)c1", "assayed-target": "γ-secretase (Homo sapiens)", "IC50": "> 10 µM"}
{"molecule": "Cc1cn(-c2ccc3n(c2=O)C[C@@H](C)N(Cc2cn(C)c4cc(F)ccc24)C3=O)cn1", "assayed-target": "γ-secretase (Homo sapiens)", "IC50": "> 10 µM"}
{"molecule": "Cc1cn(-c2ccc3n(c2=O)CCN(Cc2cccc(Cl)c2)C3=O)cn1", "assayed-target": "γ-secretase (Homo sapiens)", "IC50": "> 10 µM"}
{"molecule": "Cc1cn(-c2ccc3n(c2=O)CCN(C(C)c2cc(F)cc(C(F)(F)F)c2)C3=O)cn1 (centres unmarked)", "assayed-target": "γ-secretase (Homo sapiens)", "IC50": "> 10 µM"}
{"molecule": "Cc1cn(-c2ccc3n(c2=O)C[C@@H](C)N(Cc2ccc(C)c(OCC4CC4)c2)C3=O)cn1", "assayed-target": "γ-secretase (Homo sapiens)", "IC50": "> 10 µM"}
{"molecule": "Cc1cn(-c2ccc3n(c2=O)C[C@@H](C)N(Cc2cc(C(F)(F)F)ccc2Cl)C3=O)cn1", "assayed-target": "γ-secretase (Homo sapiens)", "IC50": "> 10 µM"}
{"molecule": "Cc1cn(-c2ccc3n(c2=O)C[C@@H](C)N(C(C)c2cc(CC4CC4)cc(C(F)(F)F)c2)C3=O)cn1 (single isomer, unassigned) [compound 135]", "assayed-target": "γ-secretase (Homo sapiens)", "IC50": "> 10 µM"}
{"molecule": "Cc1cn(-c2ccc3n(c2=O)C(C)C(C)N(Cc2cc(C(F)(F)F)cc(C(F)(F)F)c2)C3=O)cn1 (single isomer, unassigned) [14a]", "assayed-target": "γ-secretase (Homo sapiens)", "IC50": "> 10 µM"}
{"molecule": "Cc1cn(-c2ccc3n(c2=O)C[C@@H](C)N(Cc2cccc(OC(F)(F)F)c2)C3=O)cn1", "assayed-target": "γ-secretase (Homo sapiens)", "IC50": "> 10 µM"}
{"molecule": "CCn1cc(CN2C(=O)c3ccc(-n4cnc(C)c4)c(=O)n3CC2C)c2ccc(C(F)(F)F)cc21 (centres unmarked)", "assayed-target": "γ-secretase (Homo sapiens)", "IC50": "> 10 µM"}
